- assay-system: Sodium channel protein type 4 subunit alpha (Homo sapiens)
- Sequence (P35499 whole entry): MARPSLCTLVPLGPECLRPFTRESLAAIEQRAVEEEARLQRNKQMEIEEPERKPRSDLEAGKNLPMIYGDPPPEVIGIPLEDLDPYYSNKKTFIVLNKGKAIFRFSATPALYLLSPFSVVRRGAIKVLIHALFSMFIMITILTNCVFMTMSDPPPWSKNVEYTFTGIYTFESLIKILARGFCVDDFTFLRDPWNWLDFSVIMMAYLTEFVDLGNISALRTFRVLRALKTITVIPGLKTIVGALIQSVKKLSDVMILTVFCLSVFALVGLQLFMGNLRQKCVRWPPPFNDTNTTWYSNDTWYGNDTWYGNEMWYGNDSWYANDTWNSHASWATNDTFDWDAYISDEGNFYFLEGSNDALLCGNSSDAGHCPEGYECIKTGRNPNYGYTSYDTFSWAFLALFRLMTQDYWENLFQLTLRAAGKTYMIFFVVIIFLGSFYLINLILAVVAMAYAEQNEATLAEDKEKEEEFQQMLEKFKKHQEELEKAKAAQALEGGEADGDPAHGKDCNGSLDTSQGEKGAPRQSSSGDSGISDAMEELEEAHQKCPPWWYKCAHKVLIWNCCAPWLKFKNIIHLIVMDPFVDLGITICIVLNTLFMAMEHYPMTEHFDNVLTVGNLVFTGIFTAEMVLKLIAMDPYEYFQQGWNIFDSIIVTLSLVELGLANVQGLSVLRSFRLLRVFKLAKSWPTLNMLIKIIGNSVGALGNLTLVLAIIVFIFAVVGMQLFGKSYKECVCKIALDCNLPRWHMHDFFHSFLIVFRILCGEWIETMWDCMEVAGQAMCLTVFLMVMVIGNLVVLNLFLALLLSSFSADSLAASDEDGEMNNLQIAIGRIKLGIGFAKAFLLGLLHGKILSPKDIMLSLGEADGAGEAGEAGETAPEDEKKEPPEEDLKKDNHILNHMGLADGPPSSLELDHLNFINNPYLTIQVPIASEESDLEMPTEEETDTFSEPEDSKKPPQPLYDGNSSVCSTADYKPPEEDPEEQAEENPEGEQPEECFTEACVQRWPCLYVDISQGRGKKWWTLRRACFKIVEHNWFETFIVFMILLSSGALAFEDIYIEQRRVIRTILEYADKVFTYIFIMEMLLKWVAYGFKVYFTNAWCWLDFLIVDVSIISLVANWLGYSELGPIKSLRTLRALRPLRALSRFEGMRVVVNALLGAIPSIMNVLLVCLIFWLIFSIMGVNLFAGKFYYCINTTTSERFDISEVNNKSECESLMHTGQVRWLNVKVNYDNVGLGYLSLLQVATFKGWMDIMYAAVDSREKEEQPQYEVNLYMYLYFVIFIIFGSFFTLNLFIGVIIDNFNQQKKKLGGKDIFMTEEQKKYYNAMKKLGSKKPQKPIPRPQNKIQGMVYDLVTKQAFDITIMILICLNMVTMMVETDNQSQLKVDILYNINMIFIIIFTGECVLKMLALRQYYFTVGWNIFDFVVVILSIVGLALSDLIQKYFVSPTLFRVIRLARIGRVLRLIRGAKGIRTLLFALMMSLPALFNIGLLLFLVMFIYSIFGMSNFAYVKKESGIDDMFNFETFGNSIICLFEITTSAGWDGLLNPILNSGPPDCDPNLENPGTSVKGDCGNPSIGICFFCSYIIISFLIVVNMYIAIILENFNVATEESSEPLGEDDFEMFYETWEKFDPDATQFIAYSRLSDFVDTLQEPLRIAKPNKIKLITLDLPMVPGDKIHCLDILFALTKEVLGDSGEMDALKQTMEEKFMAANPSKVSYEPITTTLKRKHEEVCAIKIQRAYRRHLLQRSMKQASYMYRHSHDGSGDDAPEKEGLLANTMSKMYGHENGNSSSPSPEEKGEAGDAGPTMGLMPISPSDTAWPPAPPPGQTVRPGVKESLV
- assay-comment: Inhibition of human Nav 1.4 expressed in HEK293T cells assessed as tonic block at 0.1 Hz by whole cell patch clamp assay
- Assay type: cell-based
Please provide measured IC50 for the entries that follow.
Write the number in µM without appending the unit.

Give its IC50 value. Item: FC(F)(F)Oc1ccc2nc(N3CCNCC3)sc2c1 95

Tell me the measured IC50 of Nc1nc2ccc(C(F)(F)F)cc2s1 , please. 58

Please report the recorded IC50 for CC(C)c1ccc2nc(N)sc2c1 . 118

Fill in: IC50 of c1ccc(Oc2ccc3nc(N4CCNCC4)sc3c2)cc1 is ___ 250

// lookup IC50 for Nc1nc2ccc(OC(F)(F)F)cc2s1 63

----------
- assay-system: Sodium channel protein type 9 subunit alpha (Homo sapiens, UniProt Q15858)
- Sequence (Q15858 whole entry): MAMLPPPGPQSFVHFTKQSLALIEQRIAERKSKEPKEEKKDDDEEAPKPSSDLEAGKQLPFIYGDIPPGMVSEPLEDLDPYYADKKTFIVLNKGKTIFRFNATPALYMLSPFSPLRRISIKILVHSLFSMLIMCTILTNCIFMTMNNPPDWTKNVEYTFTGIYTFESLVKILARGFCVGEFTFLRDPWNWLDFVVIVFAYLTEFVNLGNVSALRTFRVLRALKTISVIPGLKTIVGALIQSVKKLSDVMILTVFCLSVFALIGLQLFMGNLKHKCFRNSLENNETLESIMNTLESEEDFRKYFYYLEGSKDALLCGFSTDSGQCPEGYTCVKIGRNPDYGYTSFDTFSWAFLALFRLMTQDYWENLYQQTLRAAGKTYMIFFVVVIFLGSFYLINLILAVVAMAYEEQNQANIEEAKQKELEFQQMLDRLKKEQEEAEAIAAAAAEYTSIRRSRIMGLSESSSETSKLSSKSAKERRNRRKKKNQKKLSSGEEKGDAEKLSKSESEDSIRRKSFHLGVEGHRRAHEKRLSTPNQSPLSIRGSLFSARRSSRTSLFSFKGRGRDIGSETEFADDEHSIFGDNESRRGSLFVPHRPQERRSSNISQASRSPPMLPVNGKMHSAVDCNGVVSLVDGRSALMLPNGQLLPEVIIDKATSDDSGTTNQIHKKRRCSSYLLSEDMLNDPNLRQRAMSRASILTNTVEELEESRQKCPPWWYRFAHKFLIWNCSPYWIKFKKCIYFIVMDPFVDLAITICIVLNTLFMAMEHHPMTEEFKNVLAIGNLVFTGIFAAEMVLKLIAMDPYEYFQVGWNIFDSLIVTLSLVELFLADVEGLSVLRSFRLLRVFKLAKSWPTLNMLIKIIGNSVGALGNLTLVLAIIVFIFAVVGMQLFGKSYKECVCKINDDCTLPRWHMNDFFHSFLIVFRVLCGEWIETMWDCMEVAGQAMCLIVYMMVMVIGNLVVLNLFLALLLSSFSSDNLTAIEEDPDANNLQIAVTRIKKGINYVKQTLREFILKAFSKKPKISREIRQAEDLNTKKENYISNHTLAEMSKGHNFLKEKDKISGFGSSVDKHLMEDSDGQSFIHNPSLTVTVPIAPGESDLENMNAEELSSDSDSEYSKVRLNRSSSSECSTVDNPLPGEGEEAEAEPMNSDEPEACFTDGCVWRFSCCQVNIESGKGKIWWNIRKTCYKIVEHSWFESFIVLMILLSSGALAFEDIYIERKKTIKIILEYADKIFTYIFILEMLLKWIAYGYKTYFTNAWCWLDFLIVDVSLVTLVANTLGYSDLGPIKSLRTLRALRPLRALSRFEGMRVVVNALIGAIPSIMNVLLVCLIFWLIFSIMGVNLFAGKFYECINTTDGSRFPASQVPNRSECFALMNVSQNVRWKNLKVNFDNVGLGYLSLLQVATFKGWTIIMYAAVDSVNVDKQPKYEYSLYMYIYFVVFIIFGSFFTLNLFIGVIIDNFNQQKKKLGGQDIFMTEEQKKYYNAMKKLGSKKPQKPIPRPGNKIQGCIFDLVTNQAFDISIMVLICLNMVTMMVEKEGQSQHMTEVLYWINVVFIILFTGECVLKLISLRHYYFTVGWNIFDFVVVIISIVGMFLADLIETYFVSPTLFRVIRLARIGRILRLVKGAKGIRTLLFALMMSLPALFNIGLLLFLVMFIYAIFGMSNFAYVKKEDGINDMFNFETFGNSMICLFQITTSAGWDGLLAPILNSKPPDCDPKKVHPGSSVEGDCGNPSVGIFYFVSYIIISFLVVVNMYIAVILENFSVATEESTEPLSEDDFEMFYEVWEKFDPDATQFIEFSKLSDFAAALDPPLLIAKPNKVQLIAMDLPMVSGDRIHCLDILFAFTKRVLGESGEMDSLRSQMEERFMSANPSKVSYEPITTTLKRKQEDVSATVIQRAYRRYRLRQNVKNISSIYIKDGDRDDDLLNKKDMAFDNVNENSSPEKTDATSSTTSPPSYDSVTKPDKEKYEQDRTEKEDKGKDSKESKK
- assay-comment: Inhibition of human Nav 1.7 expressed in HEK293T cells assessed as phasic block at 10 Hz by whole cell patch clamp assay
- Type: cell-based
Record form. Attribute: pIC50. Fill in for each entry.
// pIC50 is dimensionless: -log10 of concentration (M)

Form: Entry = FC(F)(F)Oc1ccc2nc(N3CCNCC3)sc2c1 | System = Sodium channel protein type 9 subunit alpha (Homo sapiens, UniProt Q15858) | pIC50 = ____ 4.62

Field: pIC50 (Sodium channel protein type 9 subunit alpha (Homo sapiens, UniProt Q15858)). Entry: c1ccc(Oc2ccc3nc(N4CCNCC4)sc3c2)cc1 4.32
